Entries annotated with measured %Inh
system: STK16; conditions: concentration: 1 μM, replicates: in singlicate; n = 1
Report only the number, with the unit % understood.

Answered cases to consult:
| compound | result |
| --- | --- |
| Cc1ccc(NC(=O)Nc2ccccc2)cc1-c1ccc(C(=O)Nc2ccncc2)cc1 [GSK1398471] | 9 |
| COC(=O)c1cccc(NC(=O)NC2CCN(c3ccnc(Nc4ccc(F)cc4)n3)C2)c1 (centres unmarked) [GSK1379725] | 0 |
| Cc1c(Cn2c3ccccc3n3c(=O)cc(N4CCOCC4)nc23)cccc1C(F)(F)F [GSK2306394] | 11 |
| CCn1c(-c2ccccc2)nc2cnccc21 [SB-733416] | 0 |

Then this compound:
Lab request: please report %Inh under test system STK16 for COC(=O)C(Cc1ccccc1)NC(=O)NC1CCN(c2ccnc(Nc3ccc(F)cc3)n2)C1 (centres unmarked) [GSK1379714] 19

* * *

Entries annotated with measured %Inh
tested on: MAPKAPK2; details: concentration: 1 μM, replicates: in singlicate; n = 1
Report only the number, with the unit % understood.

Answered cases to consult:
| compound | result |
| --- | --- |
| O=C(Nc1n[nH]c2nc(-c3ccco3)c(Br)cc12)C1CCN(Cc2ccccc2)C1.O=C(O)[C@H](O)[C@@H](O)C(=O)O (stereo not shown) [SB-742034] | 5 |
| CNc1nc(-c2ccc3c(N)n[nH]c3c2)cc(N2C[C@@H](C(=O)Nc3ccccc3)CC[C@H]2C)n1 [GSK2298859] | 0 |
| COc1ccc(Nc2nccc(N3CCC(NC(=O)c4cc5ccccc5s4)C3)n2)cc1 (stereo not shown) [GSK1379738] | 0 |

Then this compound:
What %Inh value was documented for this compound, O=C1NC(=O)C(c2ccc(Cl)cc2)=C1Nc1ccc(O)cc1 [SB-340867] ? 8

* * *

Quick record: pKd, FLT3.
Please express pKd as -log10 of the molar concentration.

| compound | measurement.name | result |
| --- | --- | --- |
| CS(=O)(=O)Cc1ccc(Nc2nccc(-c3c(-c4cccc(NC(=O)C5CCCCC5)c4)nn4ncccc34)n2)cc1 | pKd | 7.13 |

Lab request: please report pKd under test system FLT3 for O=C(Nc1n[nH]c2nc(-c3cccs3)c(Br)cc12)C1CC1 6.82

* * *

system: ERK2; construct: gene MAPK1
pKd: −log10 of the molar value.
measurement.name: pKd

What pKd value was documented for this molecule, Cc1ccc(-c2nc(Nc3ccncc3)c3ccccc3n2)s1 ? < 5.00

* * *

Entries annotated with measured %Inh
tested on: SRC; conditions: concentration: 1 μM, replicates: in singlicate; n = 1

Answered cases to consult:
| molecule | result |
| --- | --- |
| COc1ccc(-c2coc3ccc(-c4nnc(C)o4)cc23)cc1 | 20% |
| COc1cccc(NC(=O)Nc2ccc(C)c(-c3ccc(C(=O)Nc4ccncc4)cc3)c2)c1 [GSK1398474] | 31% |
| CCn1c(-c2c(N)noc2C)nc2cnccc21 [SB-737856] | 0% |
| COc1ccc2cc(-c3nc(-c4ccccc4C(C)C)[nH]c3-c3ccncc3)ccc2c1 [SB-660566] | 0% |
| COc1cc2ncnc(Nc3cccc(Br)c3)c2cc1OC.Cl [GI230329] | 20% |
| CNc1nc(-c2ccc3c(N)n[nH]c3c2)cc(N2C[C@@H](C(=O)NC3CCCCC3)OC[C@H]2C)n1 [GSK2375584] | 0% |
| Cn1cncc1C(=O)NC1CCN(c2ccnc(Nc3ccc(F)cc3)n2)C1 (stereo not drawn) [GSK1379717] | 0% |
| Cc1cnc(N)c(/C=C/c2cncc(C(=O)NCCc3ccc(Cl)cc3Cl)c2)c1.Cl [GSK190937] | 0% |
| CC(C)c1cc(-c2ccc3c(N)n[nH]c3c2)nc(N)n1 [GSK2250882] | 0% |
| CCc1ccc(-c2ccc3c(c2)-c2n[nH]cc2S(=O)(=O)N3C)cc1 | 0% |

What %Inh value was documented for this molecule, COC(=O)c1cccc(NC(=O)NC2CCN(c3ccnc(Nc4ccc(OC)cc4)n3)C2)c1 (stereo not drawn) [GSK1379746] ? 0%

What %Inh value was documented for this molecule, Fc1ccc(-c2nc3n(c2-c2ccncc2)CCS3)cc1 [GI98581] ? 9%

What %Inh value was documented for this molecule, CC(=O)c1c(C)c2cnc(Nc3ccn(C)n3)nc2n(C2CCCC2)c1=O ? 0%

What %Inh value was documented for this molecule, COc1ccc(CSc2nnc(-c3ccc4nccn4c3)o2)cc1C(F)(F)F ? 7%

What %Inh value was documented for this molecule, CNCc1ccc2nc(NC(=O)c3ccc(C(C)(C)C)cc3)cn2c1 ? 3%

What %Inh value was documented for this molecule, COc1ccc(Nc2nccc(NCCNC(=O)Nc3cc(C)ccc3C)n2)cc1 [GSK1379899] ? 0%

What %Inh value was documented for this molecule, COC(=O)c1cccc(NC(=O)NC2CCN(c3ccnc(Nc4ccc(F)cc4)n3)C2)c1 (stereo not drawn) [GSK1379725] ? 0%

What %Inh value was documented for this molecule, CS(=O)(=O)Cc1ccc(Nc2nccc(-c3c(-c4cccc(NC(=O)C5CCCCC5)c4)nn4ncccc34)n2)cc1 [GSK350559] ? 30%
